Data provenance: the supplement of paper PMC8728848

Reported glycan array binding signal (z-score) values are given for each entry in this list.
TARGET_ENTITY: Fuc(a1-2)Gal(b1-3)GalNAc(b1-4)[Neu5Ac(a2-3)]Gal(b1-4)Glc
METHOD_SUMMARY: glycan array binding signal (z-score within array); higher = stronger binding
EXPERIMENTAL_SETUP: glycan notation: IUPAC condensed, linker removed
Many of the other results were omitted from the sample, so the strongest signals are more common in it than they were.

binder="LF82 (Escherichia coli) (protein) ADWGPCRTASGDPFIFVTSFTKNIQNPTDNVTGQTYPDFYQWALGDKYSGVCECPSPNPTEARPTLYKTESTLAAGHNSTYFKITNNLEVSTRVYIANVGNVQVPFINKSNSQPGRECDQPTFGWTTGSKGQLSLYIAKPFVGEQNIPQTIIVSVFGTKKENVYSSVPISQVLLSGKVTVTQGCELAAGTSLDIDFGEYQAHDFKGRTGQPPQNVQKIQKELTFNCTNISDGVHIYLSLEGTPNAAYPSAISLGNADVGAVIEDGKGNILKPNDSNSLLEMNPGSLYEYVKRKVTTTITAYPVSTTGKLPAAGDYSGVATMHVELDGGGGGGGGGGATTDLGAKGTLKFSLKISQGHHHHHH" result=3.03
binder="RS-IIL (Ralstonia solanacearum) (protein) AQQGVFTLPANTSFGVTAFANAANTQTIQVLVDNVVKATFTGSGTSDKLLGSQVLNSGSGAIKIQVSVNGKPSDLVSNQTILANKLNFAMVGSEDGTDNDYNDGIAVLNWPLG" result=0.021
binder="rPitB (Streptococcus pneumoniae), A0A0I7U739 (protein) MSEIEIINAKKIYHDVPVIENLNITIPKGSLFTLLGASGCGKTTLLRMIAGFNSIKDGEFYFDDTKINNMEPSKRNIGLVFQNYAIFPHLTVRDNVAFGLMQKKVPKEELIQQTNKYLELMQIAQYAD" result=-0.128

Switching to the query record.
Output measured glycan array binding signal (z-score) for this item: F17fG (Escherichia coli), Q9RH91 (protein) MTNFYKVFLAVFILVCCNISHAAVSFIGSTENDVGPSQGSYSSTHAMDNLPFVYNTGHNIGYQNANVWRISGGFCVGLDGKVDLPVVGSLDGQSIYGLTEEVGLLIWMGDTNYSRGTAMSGNSWENVFSGWCVGNYVSTQGLSVHVRPVILKRNSSAQYSVQKTSIGSIRMRPYNGSSAGSVQTTVNFSLNPFTLNDTVTSCRLLTPSAVNVSLAAISAGQLPSSGDEVVAGTTSLKLQCDAGVTVWATLTDATTPSNRSDILTLTGASTATGVGLRIYKNTDSTPLKFGPDSPVKGNENQWQLSTGTETSPSVRLYVKYVNTGEGINPGTVNGISTFTFSYQ
-0.197
